- testName: Chemical hydrolysis in isotonic Sorensen phosphate buffer, followed spectrophotometrically
- Type: physicochemical
- measurementParameters: pH 7.4, 25°C, no enzyme, read-out: apparent half lives for chemical hydrolysis
attributeMeasured: half-life (min)
Record the value in min, omitting the unit from your answer.

q: For the compound CCOC(=O)C1=C(Nc2ccccc2)CCCC1 , give its reported half-life.
a: 18

Source listed as patent EP0214009A2.
